Cited source: PubChem BioAssay (NCI)

Test system: LOX IMVI melanoma
Experiment: NCI tumour cell line growth inhibition, 48 h
Value Type: TGI

O=C(/C=C/c1ccc2c(c1)OCO2)Cc1nc2ccccc2[nH]c1=O; > 100 µM
CSc1ccc(N(C)c2nc(C)nc3c2CCC3)cc1; 13.7 µM
CC(=O)[CH-]C(=O)c1ccccc1.CC(=O)[CH-]C(=O)c1ccccc1.CC1(C)OCC(C2OC3OC(C)(C)OC3C2[O-])O1.CC[O-].[Ti+4] (stereo not drawn); 29.8 µM
Cc1ccc(-n2nc(C(C)(C)C)cc2NC(=O)NCc2cc(F)ccc2Oc2ccc3c(cnn3CCO)c2)cc1; > 38.1 µM
N.N.N.N.N.O=S(=O)([O-])S(=O)(=O)[O-].[Co+3]; > 100 µM
CCN(CCCl)c1cc(CN(C)C)cc(NC(=O)c2ccc(C(=O)Nc3cccc(CN(C)C)c3)cc2)c1; 0.569 µM

Tell me its TGI given O=S1CSSC1 as the entry.
20 µM

Tell me its TGI given COc1ccc(-c2c(C3=NCCCN3)nnn2-c2ccc([N+](=O)[O-])cc2)cc1 as the entry.
> 100 µM

Tell me its TGI given CCOC(=O)C1=CC(C)(C(=O)OCC)Nc2c(nc(N)[nH]c2=O)N1 (stereo not drawn) as the entry.
> 10 µM

Tell me its TGI given COc1cccc(COc2cc(-n3cnc4ccccc43)sc2C(N)=O)c1 as the entry.
> 25 µM

Tell me its TGI given CC(C)Oc1ccc(C(=O)Cn2ccnc2)cc1-n1c(CN2CCN(C(=O)COc3ccc(Cl)cc3)CC2)nc2ccccc2c1=O as the entry.
27.5 µM

Tell me its TGI given CCN1C(=O)C(=C/C=C/c2ccc(N(CC)CC)cc2)C(=O)N(CC)C1=S as the entry.
> 100 µM

Tell me its TGI given Cc1c(C)c(CC(=O)N2CC2)c(C)c(C)c1CC(=O)N1CC1 as the entry.
> 49 µM

Tell me its TGI given N#C/C(=C1\SC(N=Nc2ccc(Cl)cc2)C(=O)N1c1ccccc1)c1nc2ccccc2[nH]1 (stereo not drawn) as the entry.
57.4 µM

Tell me its TGI given COC1C(O)C(O[C@H]2CC[C@@]3(C)C(CC[C@@H]4[C@@H]3CC[C@]3(C)[C@@H](C(C)OC5OC(CO)C(O)C(O)C5O)CC[C@]43O)C2)OC(C)C1OC1OC(CO)C(O)C(O)C1O (stereo partly drawn) as the entry.
> 100 µM

Tell me its TGI given C=CC(=O)N1C/C(=C\c2ccc(Cl)cc2)C(=O)/C(=C/c2ccc(Cl)cc2)C1 as the entry.
0.229 µM

Tell me its TGI given CN(C)c1ccc(Cc2cc3c(O)ccc(O)c3cc(Cc3ccc(N(C)C)cc3)c2=O)cc1 as the entry.
40.7 µM

Tell me its TGI given Cc1cccc(C)c1N1C(=O)C(=O)C(c2nc3ccccc3s2)C(=Nc2cccc3c(=O)[nH][nH]c(=O)c23)C1=O (stereo not drawn) as the entry.
> 100 µM
